test: inhibitors of cytokine-induced beta cell apoptosis, primary screen, luminescence (AID 435005); conditions: INS-1E cytokine-induced death, ATP luminescence, 48 h; stronger effect = higher value; percent of positive-control rescue, neutral wells zero; concentration not given here;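 note: 0% = cytokine-treated negative control wells and 100% = positive control rescue; higher means more ATP so stronger rescue from cytokine killing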
Screen size: about 300,000 compounds; about 2,400 (0.8%) were called active. The entries come from a sample that favours actives as a whole.
reported_metric: protection from apoptosis (%)
Report the value in % with no unit label.

>>> numeric_value("O=C(CNC(=O)c1ccco1)NNC(=O)c1ccc(Br)cc1")
-6.27
>>> numeric_value("C[C@H]1COC(=O)[C@H](CC(=O)OC(C)(C)C)C/C=C\\C[C@@H](CC(=O)N[C@H](CO)Cc2ccccc2)C(=O)N1")
0.417
>>> numeric_value("O=C(c1cccc(Cl)c1)N1CCN(Cc2ccccc2)CC1")
-9.96
>>> numeric_value("CC(=O)C[C@H](O)CC(=O)[C@@H]1OC(=O)[C@@H](C)C/C=C\\Cc2ccccc21")
-6.43
>>> numeric_value("COc1ccc(NS(=O)(=O)c2cc(NC(=O)c3ccc(S(=O)(=O)N(C)C)cc3)ccc2N2CCOCC2)cc1")
5.26

I have this molecule here, "O=C(Cn1cnc2c(OCc3ccccc3)ncnc21)NCc1nc2ccccc2[nH]1" , and I need its recorded protection from apoptosis. -9.45

Thanks! And "O=C(COC(=O)Cc1ccc([N+](=O)[O-])cc1)NC1CCCCCC1" ? -5.89

Thanks! And "Cc1cc(C)nc(N/N=C/c2ccncc2)n1" ? -0.736

---

assay: inhibitors of cytokine-induced beta cell apoptosis, primary screen, luminescence (AID 435005); settings: INS-1E cytokine-induced death, ATP luminescence, 48 h; percent of positive-control rescue, neutral wells zero; concentration not given here;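 note: 0% = cytokine-treated negative control wells and 100% = positive control rescue; higher means more ATP so stronger rescue from cytokine killing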
In all, about 300,000 compounds went through this assay and about 2,400 (0.8%) were called active.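 The calls were made as follows: active = Every replicate reaches about 75%, or at least half do and their mean reaches it too (limit read from the data); inconclusive = At least half of replicates reach the limit but their mean does not; inactive = Under half of replicates reach the limit.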 The sample as a whole holds a higher share of actives than the screen did.
Write down the outcome that applies. Available outcomes: true for active, false for inactive

>>> answer_label("COc1ccc(CCNC(=O)/C(C#N)=C2\\N=C(NC(=O)c3cccs3)c3ccccc32)cc1")
"false"

Outcome? "COc1ccc(NC(=O)N(C)C[C@H]2Oc3ccc(NC(=O)C4CC4)cc3C(=O)N([C@H](C)CO)C[C@@H]2C)cc1" false

Thanks! And "C=CC[C@H](CC(=O)OC(C)(C)C)C(=O)OC[C@H]1CCCN1C(=O)[C@H](CC=C)CC(=O)N(CCO)Cc1ccccc1" ? false

Thanks! And "COc1cc(NC(=O)c2cncc(-c3ccc(C#N)cc3)c2)cc(C(=O)Nc2cccc(C(F)(F)F)c2)c1" ? false

Thanks! And "Cc1cccc(N=C2NN=C(c3c[nH]c4ccccc34)CS2)c1" ? false

Thanks! And "Clc1cccc(N=C2NN=C(c3ccc4c(c3)OCCO4)CS2)c1" ? true

Thanks! And "COc1cc(C(=O)OCc2cc(=O)n3ccsc3n2)ccc1OC(C)C" ? false

Thanks! And "COc1ccc(NC(=O)CN(C)C(=O)c2cc(C3CC3)nn2-c2ccccc2)cc1" ? false

Thanks! And "COCCN(Cc1ccccc1)C(=O)Cc1ccc(S(=O)(=O)N2CCOCC2)s1" ? false

Thanks! And "O=S(=O)(c1ccc(SCc2ccccc2)nc1)N1CCCCCC1" ? false

Thanks! And "COc1ccc(NC(=O)CN(C)CC(=O)Nc2cccc(C(F)(F)F)c2)cc1" ? false
